- System: SK-MEL-5 melanoma
- ASSAY_EXPLANATION: NCI tumour cell line growth inhibition, 48 h
REPORTED_METRIC: TGI

# MOLECULE, ASSAY_TARGET, REPORTED_METRIC, VALUE_MEASURED
measured = [
    ("O=C(/C=C1/NC(=O)CS1)Nc1ccccc1", "SK-MEL-5 melanoma", "TGI", "> 100 µM"),
]

Let us move to another entry and its TGI.
Q: # lookup: TGI of CCCCCCCCCCCC[n+]1ccc(C(N)=O)cc1
A: 3.05 µM

###

- Test system: NCI-H522 lung
- ASSAY_EXPLANATION: NCI tumour cell line growth inhibition, 48 h; in the data active = GI50 below about 0.43 µM; inactive = the rest
The categories you may choose from are y (active), n (inactive)

# MOLECULE, QUALITATIVE_LABEL
data = [
    ("COc1ccc(/C=C/C(=O)c2cc3c(N)c(C(=O)Nc4ccccc4)sc3nc2C)cc1", "y"),
    ("NCCCCN(Cc1nc2ccccc2[nH]1)[C@H]1CCCc2cccnc21", "n"),
    ("CN1CCn2c(c(Sc3ccc(C(=O)NO)cc3)c3ccccc32)C1=O", "n"),
    ("CC1=C(C(=O)Nc2ccc(F)c(Cl)c2)C(c2cccc(Oc3ccccc3)c2)NC(=O)N1 (stereo unspecified)", "n"),
    ("CN(C)CCNC(=O)c1cc2c3ccccc3[nH]c2c2ncccc12", "n"),
]

# input for lookup
Q: Each molecule tested received a call. Report the one for C=C1CC[C@@H]2[C@](C)(COC(C)=O)[C@H](OC(C)=O)CC[C@@]2(C)[C@@H]1C/C=C1/C(=O)OC[C@H]1OC(C)=O .
A: n

###

- Tested on: SW-620 colon
- ASSAY_EXPLANATION: NCI tumour cell line growth inhibition, 48 h
Recorded GI50 for the following compounds

Reference set (4 entries):
# COMPOUND, VALUE_MEASURED
data = [
    ("Cc1nn(-c2nc3ccccc3[nH]2)c2c1C(c1ccc3c(c1)OCO3)CC(=O)N2 (stereo not drawn)", "2860 nM"),
    ("C[CH2][Sn]([CH2]C)([O]C(=O)c1cccc(F)c1)[O][Sn]([CH2]C)([CH2]C)[O]C(=O)c1cccc(F)c1", "17200 nM"),
    ("N=C(N)c1ccc(-c2ccc(-c3cccs3)s2)nc1", "1850 nM"),
    ("CN1CCn2c(c(Sc3ccc(C(=O)NO)cc3)c3ccccc32)C1=O", "1860 nM"),
]

Q: Which GI50 is reported for this compound? C=C1CC[C@@H]2[C@](C)(COC(C)=O)[C@H](OC(C)=O)CC[C@@]2(C)[C@@H]1C/C=C1/C(=O)OC[C@H]1OC(C)=O
A: 2290 nM

Q: Also CCOC(=O)C#Cc1c(CC(=O)OCC)nnn1[C@H]1O[C@@H](CO)[C@@H]2OC(C)(C)O[C@@H]21 , if possible.
A: 1880 nM

Q: Param item: COc1cc([N+](=O)[O-])c(OC)cc1-c1nc2sc(Cl)cn2c1/C=N/NC(=N)N/N=C/c1c(-c2cc(OC)c([N+](=O)[O-])cc2OC)nc2sc(Cl)cn12
A: 1850 nM

Q: Follow-up item: CCCCCN(CCCCC)CC(O)c1cc2c(c3ccccc13)CCCC2 (stereo not drawn)
A: 5990 nM
